- test system: Histidine--tRNA ligase (Trypanosoma cruzi (strain CL Brener))
- method description: Trypanosoma cruzi histidyl tRNA synthetase (Tc-HisRS)
- Assay type: functional
- Parameters: scale not given: direction of the effect not stated beside the values
- condition description: 30 µM
Hit rate of the full screen: of about 69,000 compounds, about 30 (0.04%) showed an effect of 50% or more. This excerpt belongs to a sample that is enriched for strong results.
Below is a list of entries, each paired with its recorded Percent Effect value.
observed property: Percent Effect (%)

In [3]: df
Out[3]:
                                    compound  observed_property  endpoint_value
 0     COc1cccn(CC(=O)N2CCCC3(CCOCC3)C2)c1=O     Percent Effect             9.9
 1  O=C(NCc1ccccc1)[C@H]1C[C@@H]2CN(S(=O)(=O)C3CC3)C[C@H]1O2     Percent Effect            6.01
 2  CCn1ncc(CN2C[C@@H]3CCCN3C[C@@H]2CCSC)c1C     Percent Effect            8.99
 3  CCO[C@@H]1CC[C@H]2[C@H]1OCCN2CCOCc1ccccc1     Percent Effect            4.12
 4    O=C1[C@H]2CN(c3cnccn3)C[C@H]2CN1CC1CC1     Percent Effect            7.22
 5  CCOC(=O)[C@@H]1CN2CCNC[C@@H]2[C@H]1c1ccccc1     Percent Effect            1.12
 6      COc1cccn(CC(=O)N2CCC3(CCNCC3)C2)c1=O     Percent Effect            10.9
 7  O=C(CSc1nc2nncc-2c(O)n1-c1ccccc1)N1CCOCC1     Percent Effect            7.22
 8  CCCOCC1CCN(C(=O)Cn2cccc(OC)c2=O)C1 (stereo unspecified)     Percent Effect            10.3
 9     COc1cccn(CC(=O)N2CCCC3(CCCCC3)C2)c1=O     Percent Effect            76.2
10  Cc1ccc2nc(C(=O)N3CCCC[C@]4(C)NC(=O)CCC[C@H]34)cn2c1     Percent Effect            2.24
